- Tested on: muscle cells
- experimentalDetails: Cell proliferation ELISA, BrdU incorporation into DNA (inhibition of DNA synthesis)
- Assay type: cell-based
- conditionLabel: with freshly prepared medium; stents loaded with dipyramidole
quantityMeasured: IC50

Report IC50 from muscle cells testing of OCCN(CCO)c1nc(N2CCCCC2)c2nc(N(CCO)CCO)nc(N3CCCCC3)c2n1 [dipyridamole] 4 to 10 µM
